System: OVCAR-8
assay_protocol: NCI tumour cell line growth inhibition, 48 h
Active and inactive are the calls of the source. Cut-off read from the data, not from the text of the source: active = GI50 up to about 1.1 µM and inactive = higher.
outcome_measure: GI50

The examples below pair each entry with its known result.
[[record]]
compound = "CCOc1ccc(/N=N/C2C(=O)N(C(=O)CC(=O)Nc3ccccc3)N=C2C)cc1 (stereo unspecified)"
outcome_measure = "GI50"
value_measured = "> 100 µM (inactive)"

[[record]]
compound = "O=c1c(S(=O)(=O)Oc2ccccc2)coc2cc(F)ccc12"
outcome_measure = "GI50"
value_measured = "> 100 µM (inactive)"

[[record]]
compound = "CCNCCNc1c2ccccc2nc2ccccc12"
outcome_measure = "GI50"
value_measured = "1.81 µM (inactive)"


Below is a list of compounds. For each, state its recorded GI50.
1. COc1ccc(OC)c2[s+]snc12
2. O=[N+]([O-])c1cccnc1S(=O)(=O)c1ccccc1
3. COc1ccc([C@H]2c3cc4c(cc3OC(O)(CO)[C@H]2C(=O)O)OCO4)c(OC)c1.COc1ccc([C@H]2c3cc4c(cc3OC3(O)COC(=O)[C@@H]23)OCO4)c(OC)c1 (stereo partly specified)

1. 31.7 µM (inactive)
2. 13.8 µM (inactive)
3. > 100 µM (inactive)
